- target-or-test-system: T1, cynomolgus NKp46 (cynomolgus monkey, UniProt Q95JB9 22-306)
- T1 construct: also called cyno NKp46; cynomolgus monkey NKp46
- T1 sequence (Q95JB9 22-306 limits assumed): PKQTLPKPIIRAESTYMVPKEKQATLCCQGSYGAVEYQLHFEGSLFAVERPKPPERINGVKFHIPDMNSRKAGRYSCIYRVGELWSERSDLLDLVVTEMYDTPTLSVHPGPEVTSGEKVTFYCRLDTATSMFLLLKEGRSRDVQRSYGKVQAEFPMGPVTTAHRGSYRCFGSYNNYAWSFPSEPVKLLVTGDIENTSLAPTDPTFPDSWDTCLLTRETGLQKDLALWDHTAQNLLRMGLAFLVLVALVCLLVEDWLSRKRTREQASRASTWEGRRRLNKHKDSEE
- protocol-details: flow cytometry, HEK293F cells transfected with cyno NKp46
readout-type: pKd
Quick note: pKd values are minus log10 of concentrations in mol/L.

NKp46-hz5D7v10-Fc* (Fc fusion, VHH-Fc fusion with an IgG1 Fc lacking a hinge (Fc*)) EVQLVESGGSLRLSCAASGRTFASAAMGWFRQAPGKEREFVAAISRSDDTYYADSVKGRFTISRDNAKNTVYLQMSSLRAEDTAVYYCAAVVPTYGNNIYVHSAAYNYWGQGTLVTVKPGGGGPSVFLFPPKPKDTLMISRTPEVTCVVVDVSHEDPEVKFNWYVDGVEVHNAKTKPREEQYNSTYRVVSVLTVLHQDWLNGKEYKCKVSNKALPAPIEKTISKAKGQPREPQVYTLPPSRDELTKNQVSLTCLVKGFYPSDIAVEWESNGQPENNYKTTPPVLDSDGSFFLYSKLTVDKSRWQQGNVFSCSVMHEALHNHYTQKSLSLSPG : 8.97

In the following, a different binder is considered.
Task item: Item NKp46-5D7-Fc* (Fc fusion, VHH-Fc fusion with an IgG1 Fc lacking a hinge (Fc*); also called 5D7 VHH) QVTLRESGASLSLTCAASGRTFASAAMGWFRQAPGEEREFVAAISRSDDTYYADSVKGRFTISRDNAKNTVYLQMNSLKSEDTAVYYCAAVVPTYGNNIYVHSAAYNYWGQGTQVTVKPGGGGGPSVFLFPPKPKDTLMISRTPEVTCVVVDVSHEDPEVKFNWYVDGVEVHNAKTKPREEQYNSTYRVVSVLTVLHQDWLNGKEYKCKVSNKALPAPIEKTISKAKGQPREPQVYTLPPSRDELTKNQVSLTCLVKGFYPSDIAVEWESNGQPENNYKTTPPVLDSDGSFFLYSKLTVDKSRWQQGNVFSCSVMHEALHNHYTQKSLSLSPG has what recorded pKd?
Reply: 9.27
